measuredOn: MBD2sc WT (MBD2 MBD-IDR-CC fused to GATAD2A CC) (UniProt Q9UBB5 150-393+Q86YP4:138-178, internal_change)
Sequence (Q9UBB5 other isoform, or with tags, fused parts or gaps): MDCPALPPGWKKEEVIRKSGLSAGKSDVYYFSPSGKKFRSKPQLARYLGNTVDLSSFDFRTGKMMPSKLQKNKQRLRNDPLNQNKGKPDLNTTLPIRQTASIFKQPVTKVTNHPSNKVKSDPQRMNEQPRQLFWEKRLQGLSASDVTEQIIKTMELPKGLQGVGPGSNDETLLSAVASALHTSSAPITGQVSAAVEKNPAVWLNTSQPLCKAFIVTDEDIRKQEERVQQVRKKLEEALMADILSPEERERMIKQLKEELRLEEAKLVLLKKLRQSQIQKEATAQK
protocolDetails: EMSA; Protein at 50x molar excess over probe, 10 min at room temperature; binding buffer not stated (protein storage: 10 mM Tris-HCl pH 7.5, 150 mM NaCl, 1 mM EDTA, 1 mM PMSF, 10% glycerol); 6% native PAGE in TBE (45 mM Tris, 45 mM boric acid, 1 mM EDTA) at 4 C
cond: protein: recombinant; tags: pET32a vector tags (Ni-NTA purified); label: 32P 5' end of antisense strand; blunt
propertyMeasured: binding result

binder: HBG -53/-50 CpG sites, methylated (dsDNA, 5-methyl-dC at positions 14 and 17 of sense and 14 and 17 of antisense) DNA 1: TGAGGCCAGGGGCCGGCGGCTGGCTAGGGAT DNA 2: ATCCCTAGCCAGCCGCCGGCCCCTGGCCTCA
result: binds
--
binder: HBG -53/-50 CpG sites, unmethylated (dsDNA) DNA 1: TGAGGCCAGGGGCCGGCGGCTGGCTAGGGAT DNA 2: ATCCCTAGCCAGCCGCCGGCCCCTGGCCTCA
result: no binding
--
binder: BCAT1 promoter CpG sites, methylated (dsDNA, 5-methyl-dC at sense positions 2,11,13,16,24,26,34 and antisense positions 21,29,31,39,42,44,53) DNA 1: CCGGCCCTCTCGCGGCGGAGACTCGCGACCTAGCGGATTGCATCAGCAGGAAGAC DNA 2: GTCTTCCTGCTGATGCAATCCGCTAGGTCGCGAGTCTCCGCCGCGAGAGGGCCGG
result: binds
--
binder: BCAT1 promoter CpG sites, unmethylated (dsDNA) DNA 1: CCGGCCCTCTCGCGGCGGAGACTCGCGACCTAGCGGATTGCATCAGCAGGAAGAC DNA 2: GTCTTCCTGCTGATGCAATCCGCTAGGTCGCGAGTCTCCGCCGCGAGAGGGCCGG
result: no binding
